# Tested on: OVCAR-8 ovarian
# assay procedure: NCI-60 one-dose screen, 48 h
# experimental parameters: 10 µM
About 83,000 compounds went through this panel and 20% of them were active in at least one assay; those are over-represented in the sample as a whole. Active and inactive are the calls of the source. Rule for the calls: active = growth percent below 10; inactive = the rest.
Your reply should match one of these outcome classes. yes (active), no (inactive)

Enquiry: Hi, do you know how C=CCn1c(SCC(=O)Nc2ccc(C(=O)/C=C/c3ccc(Cl)cc3)cc2)nnc1-c1cc(-c2ccccc2)nc2ccccc12 came out in this test?
Return: no

Enquiry: Hi, do you know how CCC(CC)n1c(C)cc(=O)n1C(CC)CC came out in this test?
Return: no

Enquiry: Hi, do you know how CCN(CC)c1ccc(/C=C2\SC(=O)C(Nc3nnc(-c4cccnc4SCc4ccccc4)o3)C2=O)cc1 (centres undefined) came out in this test?
Return: no

Enquiry: Hi, do you know how CC[C@@H](C(=O)[C@@H](C)[C@@H](O)[C@H](C)[C@@H]1O[C@@H]([C@@H](CC)C(=O)O)CC[C@@H]1C)C1O[C@]2(C=CC(=O)[C@]3(CC[C@@](C)([C@H]4CC[C@](O)(CC)[C@H](C)O4)O3)O2)[C@H](C)C[C@@H]1C (some centres undefined) came out in this test?
Return: no

Enquiry: Hi, do you know how CCN(CC)CCN1c2nc3ccccc3cc2Sc2cc3ccccc3nc21 came out in this test?
Return: yes

Enquiry: Hi, do you know how COc1ccc(C(=O)CSc2nc(-c3cc(OC)ccc3OC)cc(-c3ccc(OC)cc3)c2C#N)cc1 came out in this test?
Return: no

Enquiry: Hi, do you know how COc1nc2c(c(=O)n1C)CN(c1ccccc1)C(=O)C(C)N2 (centres undefined) came out in this test?
Return: no

Enquiry: Hi, do you know how O=[N+]([O-])c1cc(Cl)cc(Cl)c1O came out in this test?
Return: no

Enquiry: Hi, do you know how c1ccc(/C(=N\Nc2ccc3ccccc3n2)c2ccccn2)cc1 came out in this test?
Return: no

Enquiry: Hi, do you know how CCOc1ccccc1/C=N/N1CCCCCC1 came out in this test?
Return: no

Enquiry: Hi, do you know how CCn1c2ccc(O)cc2c2c(C)c3c[n+](C)ccc3c(C)c21 came out in this test?
Return: no

Enquiry: Hi, do you know how C#CCOc1c(OC)cc(C(=O)/C(C)=C/c2cccc(N=[N+]=[N-])c2)cc1OC came out in this test?
Return: no

Enquiry: Hi, do you know how S=C(SSC(=S)N(c1ccccc1)c1ccccc1)N(c1ccccc1)c1ccccc1 came out in this test?
Return: no

Enquiry: Hi, do you know how COc1cc(C2CC(c3ccc4c(c3)OCO4)=NN2c2ccccc2)cc(OC)c1OC (centres undefined) came out in this test?
Return: no

Enquiry: Hi, do you know how Cc1[nH]c2ccccc2c1/C=N/Nc1ncnc2sc3c(c12)CCN(CC(=O)OC(C)(C)C)C3 came out in this test?
Return: no

Enquiry: Hi, do you know how Cc1ccc(-c2c3c(N)nc(-c4cccnc4)nc3nc3c2c(C)nn3-c2ccccc2)cc1 came out in this test?
Return: no

Enquiry: Hi, do you know how CC(C)(O)CCl came out in this test?
Return: no

Enquiry: Hi, do you know how CN(C)CCCSc1ccccc1NC1=C(Cl)C(=O)C(Nc2ccccc2SCCCN(C)C)=C(Cl)C1=O came out in this test?
Return: yes

Enquiry: Hi, do you know how COc1cc(NC(=O)C2=C(N3CCOCC3)/C(=C/c3ccc(Cl)cc3)CC2)cc(OC)c1OC came out in this test?
Return: no
